- test name: Multiple ascending dose (MAD) study: multiple-dose pharmacokinetics
- Format: in vivo, human
- measurement context: human, plasma, oral, 80 mg BID, Day 13, 12 hr post-dose (300 h); read-out: Pre-dose (trough) plasma concentration, Mean

compound: CC(=O)c1nn(CC(=O)N2[C@H](C(=O)Nc3nc(Br)ccc3C)C[C@@]3(C)C[C@@H]23)c2ccc(-c3cnc(C)nc3)cc12 [Compound 1]
concentration at 300 h, ng/mL: 45.2

---

- test name: Phase I single ascending dose (SAD) study: plasma and urine pharmacokinetics
- Type: in vivo, human
- measurement context: human, plasma, oral, 80 mg, 80 mg single dose, fasted, plasma; read-out: Cmax, GM
measured parameter: Cmax (ng/mL)

compound: CC(=O)c1nn(CC(=O)N2[C@H](C(=O)Nc3nc(Br)ccc3C)C[C@@]3(C)C[C@@H]23)c2ccc(-c3cnc(C)nc3)cc12 [Compound 1]
result unit: ng/mL
assay result: 232

---

- test name: Multiple ascending dose (MAD) study: multiple-dose pharmacokinetics
- Format: in vivo, human
- measurement context: human, plasma, oral, 200 mg, 200 mg BID × 14 Days, Day 14; read-out: AUC(0-12), Mean

smiles code: CC(=O)c1nn(CC(=O)N2[C@H](C(=O)Nc3nc(Br)ccc3C)C[C@@]3(C)C[C@@H]23)c2ccc(-c3cnc(C)nc3)cc12
AUC(0-t): 8240 ng·h/mL

---

- test name: Phase I single ascending dose (SAD) study: plasma and urine pharmacokinetics
- Assay type: in vivo, human
- measurement context: human, plasma, oral, 40 mg, 40 mg single dose, fasted, plasma; read-out: tmax, GM

smiles code: CC(=O)c1nn(CC(=O)N2[C@H](C(=O)Nc3nc(Br)ccc3C)C[C@@]3(C)C[C@@H]23)c2ccc(-c3cnc(C)nc3)cc12
Tmax [h]: 1.65

---

- test name: Multiple ascending dose (MAD) study: multiple-dose pharmacokinetics
- Type: in vivo, human
- measurement context: human, plasma, oral, 200 mg, 200 mg BID × 14 Days, Day 1; read-out: Cmax, Mean

compound: CC(=O)c1nn(CC(=O)N2[C@H](C(=O)Nc3nc(Br)ccc3C)C[C@@]3(C)C[C@@H]23)c2ccc(-c3cnc(C)nc3)cc12 [Compound 1]
result unit: µg/mL
Cmax: 0.44

---

- test name: Multiple ascending dose (MAD) study: multiple-dose pharmacokinetics
- Format: in vivo, human
- measurement context: human, plasma, oral, 200 mg, 200 mg BID, Day 7, 12 hr post-dose (156 h); read-out: Pre-dose (trough) plasma concentration, Mean

compound: CC(=O)c1nn(CC(=O)N2[C@H](C(=O)Nc3nc(Br)ccc3C)C[C@@]3(C)C[C@@H]23)c2ccc(-c3cnc(C)nc3)cc12 [Compound 1]
concentration at 156 h: 241 ng/mL

---

- test name: Phase I single ascending dose (SAD) study: plasma and urine pharmacokinetics
- Assay type: in vivo, human
- measurement context: human, plasma, oral, 40 mg, 40 mg single dose, fasted, plasma; read-out: Cmax, Mean

molecule: CC(=O)c1nn(CC(=O)N2[C@H](C(=O)Nc3nc(Br)ccc3C)C[C@@]3(C)C[C@@H]23)c2ccc(-c3cnc(C)nc3)cc12 [Compound 1]
Cmax (ng/mL): 88.6

---

- test name: Phase I single ascending dose (SAD) study: plasma and urine pharmacokinetics
- Type: in vivo, human
- measurement context: human, plasma, oral, 120 mg, 120 mg single dose, fasted, plasma; read-out: tmax, GM
measured parameter: Tmax (h)

smiles code: CC(=O)c1nn(CC(=O)N2[C@H](C(=O)Nc3nc(Br)ccc3C)C[C@@]3(C)C[C@@H]23)c2ccc(-c3cnc(C)nc3)cc12
measured parameter: Tmax
assay result: 2.54

---

- test name: Multiple ascending dose (MAD) study: multiple-dose pharmacokinetics
- Type: in vivo, human
- measurement context: human, plasma, oral, 80 mg BID, Day 8, 0 hr post-dose (168 h); read-out: Pre-dose (trough) plasma concentration, Mean

smiles code: CC(=O)c1nn(CC(=O)N2[C@H](C(=O)Nc3nc(Br)ccc3C)C[C@@]3(C)C[C@@H]23)c2ccc(-c3cnc(C)nc3)cc12
concentration at 168 h / ng/mL: 109

---

- test name: Multiple ascending dose (MAD) study: multiple-dose pharmacokinetics
- Type: in vivo, human
- measurement context: human, plasma, oral, 120 mg, 120 mg BID, Day 7, 0 hr post-dose (144 h); read-out: Pre-dose (trough) plasma concentration, Mean
measured parameter: concentration at 144 h (ng/mL)

smiles code: CC(=O)c1nn(CC(=O)N2[C@H](C(=O)Nc3nc(Br)ccc3C)C[C@@]3(C)C[C@@H]23)c2ccc(-c3cnc(C)nc3)cc12
measured parameter: concentration at 144 h
assay result: 125

Taken from patent US12239645B2.
